Assign % cytotox Mean to each entry below.
- Test system: HT-29 cells
- assay-name: Additional cytotoxicity assays, resazurin (Table 3.1)
- Format: cell-based, human
- run-conditions: Table 3.1
Please append the unit to your numeric answer.

[Q] So what's the measured % cytotox Mean for this one? COc1cc(/C=c2\[nH]c(=O)/c(=C/c3nc[nH]c3C(C)(C)C)[nH]c2=O)ccc1F [Compound 2432, tBu-delta-PLH-4-F-3-OMe]
[A] 85%

[Q] Any idea what % cytotox Mean was measured for C=CC(C)(C)c1[nH]cnc1/C=C1\NC(=O)C(Cc2ccccc2)N=C1OC (racemic) [Compound 2355, D,L-monolactim-PLH] ?
[A] 13%

[Q] Any idea what % cytotox Mean was measured for COc1cc(OC)c(/C=c2\[nH]c(=O)/c(=C/c3nc[nH]c3C(C)(C)C)[nH]c2=O)c(OC)c1 [Compound 2396, tBu-delta-PLH-2,4,6-TriOMe] ?
[A] 2%

[Q] Data request, read-out % cytotox Mean, for CC(C)(C)c1[nH]cnc1/C=c1\[nH]c(=O)/c(=C/c2ccccc2N)[nH]c1=O [Compound 2457, tBu-delta-PLH-2-NH2]
[A] 86%

[Q] Record request: % cytotox Mean value, item COc1ccc(/C=c2\[nH]c(=O)/c(=C/c3nc[nH]c3C(C)(C)C)[nH]c2=O)c(O)c1 [Compound 2409, tBu-delta-PLH-2-OH-4-OMe]
[A] 8%

[Q] Query (molecule): CC(C)(C)c1[nH]cnc1/C=c1\[nH]c(=O)/c(=C/c2cc(Cl)cc(Cl)c2)[nH]c1=O [Compound 2415, tBu-delta-PLH-3,5-diCl] ; field requested: % cytotox Mean
[A] 87%

[Q] Given the molecule CC(C)(C)c1[nH]cnc1/C=c1\[nH]c(=O)/c(=C/c2ccccc2)[nH]c1=O [Compound 2358, t-butyl-delta-PLH] , what is its reported % cytotox Mean?
[A] 86%

[Q] Please look up its % cytotox Mean: Cc1ccsc1/C=c1\[nH]c(=O)/c(=C/c2nc[nH]c2C(C)(C)C)[nH]c1=O [Compound 2379, tBu-delta-PLH-3-Me-2-thienyl]
[A] 86%

[Q] Entry CC(C)(C)c1[nH]cnc1/C=c1\[nH]c(=O)/c(=C/c2ccc(C#N)cc2)[nH]c1=O [Compound 2394, tBu-delta-PLH-p-CN] : reported % cytotox Mean = ?
[A] 14%

[Q] Consider the molecule Cc1ccc(F)c(/C=c2\[nH]c(=O)/c(=C/c3nc[nH]c3C(C)(C)C)[nH]c2=O)c1 [Compound 2436, tBu-delta-PLH-2-F-5-Me] and give its measured % cytotox Mean.
[A] 86%

[Q] Tell me the measured % cytotox Mean of COc1ccc(O)c(/C=c2\[nH]c(=O)/c(=C/c3nc[nH]c3C(C)(C)C)[nH]c2=O)c1 [Compound 2405, tBu-delta-PLH-2-OH-5-OMe] , please.
[A] 25%

[Q] May I ask what % cytotox Mean has been recorded for CC(C)(C)c1[nH]cnc1/C=c1\[nH]c(=O)/c(=C/c2cc(Br)cs2)[nH]c1=O [Compound 2423, tBu-delta-PLH-4-Br-2-thionyl] ?
[A] 86%

[Q] So what does the record say about % cytotox Mean for CC(C)(C)c1[nH]cnc1/C=c1\[nH]c(=O)/c(=C/c2ccc(Br)o2)[nH]c1=O [Compound 2425, tBu-delta-PLH-5-Br-2-furyl] ?
[A] 87%

[Q] Look up % cytotox Mean for this molecule: COc1cc(/C=c2\[nH]c(=O)/c(=C/c3nc[nH]c3C(C)(C)C)[nH]c2=O)cc(OC)c1OC [Compound 2362, tBu-ΔPLH-3,4,5-triOMe]
[A] 78%

[Q] Need % cytotox Mean of Cc1ccc(C)c(/C=c2\[nH]c(=O)/c(=C/c3nc[nH]c3C(C)(C)C)[nH]c2=O)c1 [Compound 2442, tBu-delta-PLH-2,5-diMe] , thanks.
[A] 87%

[Q] Look up % cytotox Mean for this molecule: CC(C)(C)c1[nH]cnc1/C=c1\[nH]c(=O)/c(=C/c2ccc3c(c2)OCO3)[nH]c1=O [Compound 2372, tBu-delta-PLH-3,4-methylene-dioxy]
[A] 84%

[Q] For Cc1cccc(/C=c2\[nH]c(=O)/c(=C/c3nc[nH]c3C(C)(C)C)[nH]c2=O)c1C [Compound 2439, tBu-delta-PLH-2,3-di-Me] , what is its reported % cytotox Mean?
[A] 87%

[Q] For the molecule shown here, Cn1cccc1/C=c1\[nH]c(=O)/c(=C/c2nc[nH]c2C(C)(C)C)[nH]c1=O [Compound 2414, tBu-delta-PLH-N-Me-2-pyrrole] , give the reported % cytotox Mean.
[A] 88%

[Q] Look up % cytotox Mean for this molecule: COc1ccc(/C=c2\[nH]c(=O)/c(=C/c3nc[nH]c3C(C)(C)C)[nH]c2=O)c(OC)c1OC [Compound 2368, tBu-delta-PLH-2,3,4-triOMe]
[A] 78%

[Q] Record request: % cytotox Mean value, item COc1cccc(/C=c2\[nH]c(=O)/c(=C/c3nc[nH]c3C(C)(C)C)[nH]c2=O)c1N [Compound 2455, tBu-delta-PLH-2-NH2-3-OMe]
[A] 87%

[Q] Which % cytotox Mean value is on record for Cc1c(F)cccc1/C=c1\[nH]c(=O)/c(=C/c2nc[nH]c2C(C)(C)C)[nH]c1=O [Compound 2435, tBu-delta-PLH-2-Me-3-F] ?
[A] 86%

[Q] Any idea what % cytotox Mean was measured for CC(C)(C)c1[nH]cnc1/C=c1\[nH]c(=O)/c(=C/c2cc(I)ccc2F)[nH]c1=O [Compound 2428, tBu-delta-PLH-2-F-5-I] ?
[A] 87%

[Q] Can you look up the measured % cytotox Mean of CC(C)(C)c1[nH]cnc1/C=C1\NC(=O)[C@H](Cc2ccccc2)NC1=O [Compound 2460, (−)-tBu-PLH] for me?
[A] 87%

[Q] Query (molecule): COc1ccc(F)c(/C=c2\[nH]c(=O)/c(=C/c3nc[nH]c3C(C)(C)C)[nH]c2=O)c1 [Compound 2431, tBu-delta-PLH-2-F5-OMe] ; field requested: % cytotox Mean
[A] 88%

* * *

- System: MES-SA/Dx5 multidrug resistant
- assay-name: Cell growth inhibition assay, resazurin (Example 11)
- Type: cell-based, human
- run-conditions: Homo sapiens; MES-SA/Dx5; mean ± standard deviation of three independent experiments
observation-type: EC50 (nM)
Please state the figure in nM; there is no need to write the unit.

[Q] Any idea what EC50 was measured for `CC(C)(C)c1ocnc1/C=c1\[nH]c(=O)/c(=C/c2c(F)ccc(F)c2F)[nH]c1=O` ?
[A] 27

[Q] Look up EC50: `CC(C)(C)c1ocnc1/C=c1\[nH]c(=O)/c(=C/c2ccccc2)[nH]c1=O`
[A] 17

[Q] Return reported EC50; argument: `CC(C)(C)c1ocnc1/C=c1\[nH]c(=O)/c(=C/c2c(F)c(F)cc(F)c2F)[nH]c1=O`
[A] 14

[Q] // EC50 lookup, key: CC(=O)O[C@H]1C(=O)[C@@]2(C)[C@H]([C@H](OC(=O)c3ccccc3)[C@]3(O)C[C@H](OC(=O)[C@H](O)[C@@H](NC(=O)c4ccccc4)c4ccccc4)C(C)=C1C3(C)C)[C@]1(OC(C)=O)CO[C@@H]1C[C@@H]2O [Paclitaxel, reference compound]
[A] 2000

[Q] Look up EC50 for this compound: `CC(C)(C)c1ocnc1/C=c1\[nH]c(=O)/c(=C/c2cc(F)cc(F)c2F)[nH]c1=O`
[A] 13

[Q] Would you mind telling me what EC50 value was observed for `CC(C)(C)c1ocnc1/C=c1\[nH]c(=O)/c(=C/c2cccc(F)c2)[nH]c1=O` ?
[A] 14

* * *

- Tested on: HT-29 cells
- assay-name: Additional cytotoxicity assays, resazurin (Table 3.1)
- Format: cell-based, human
- run-conditions: Table 3.1
Use 80% as the dividing line for % cytotox Mean, with the line itself on the criterion met side and lower values as criterion not met.

[Q] # bool: % cytotox Mean of CC(C)(C)c1ccc(O)c(/C=c2\[nH]c(=O)/c(=C/c3ccccc3)[nH]c2=O)c1 [Compound 2422, tBu-delta-PLH-2-Hydroxybenzyl] >= 80%
[A] criterion not met

[Q] Decide: is the reported value of % cytotox Mean for `COc1cccc(/C=c2\[nH]c(=O)/c(=C/c3nc[nH]c3C(C)(C)C)[nH]c2=O)c1[N+](=O)[O-]` equal to or greater than 80%?
[A] criterion met

[Q] In plain terms: is recorded % cytotox Mean at least 80% for `C=CC(C)(C)c1[nH]cnc1/C=c1\[nH]c(=O)/c(=C\c2ccc(OC)cc2)[nH]c1=O` ?
[A] criterion not met

[Q] Is it the case that `Cc1[nH]cnc1/C=c1\[nH]c(=O)/c(=C/c2nc[nH]c2C(C)(C)C)[nH]c1=O` has % cytotox Mean reaching or exceeding 80%?
[A] criterion met

* * *

- Test system: Aspergillus fumigatus
- assay-name: Antifungal susceptibility testing, broth dilution (MIC/MFC)
- Format: cell-based
- run-conditions: Aspergillus fumigatus, A. fumigatus isolate #1; read-out: MIC
observation-type: MIC

[Q] I'd like to know its MIC. The compound in question is CCC(C)n1ncn(-c2ccc(N3CCN(c4ccc(OCC5COC(Cn6cncn6)(c6ccc(Cl)cc6Cl)O5)cc4)CC3)cc2)c1=O (stereo not shown) [itraconazole, Itraconazole, reference compound]
[A] 1 µg/mL

[Q] Which MIC value belongs to CC(C)(C)c1[nH]cnc1/C=C1\NC(=O)[C@H](Cc2ccccc2)NC1=O [t-butyl-phenylahistin] ?
[A] > 16 µg/mL

[Q] Give its MIC value. Item: C=CC(C)(C)c1[nH]cnc1/C=c1\[nH]c(=O)/c(=C/c2ccccc2)[nH]c1=O [KPU-1, Dehydrophenylahistin]
[A] > 16 µg/mL

[Q] What measured MIC goes with C=CC(C)(C)c1[nH]cnc1/C=C1\NC(=O)[C@H](Cc2ccccc2)NC1=O [(−)-Phenylahistin, reference compound] ?
[A] > 16 µg/mL
